The values you see were collected from patent US11052086B2.

assay: Pharmacokinetics in male SD rats dosed PO (plasma and brain); assay type: in vivo, rat; conditions: rat; Brain; male SD rats PO 5 mg/kg; read-out: MRT0-last
PROPERTY MEASURED: MRT last
Reply with the number and its unit after it.

What value of MRT last has been reported for the following molecule? C=CC(=O)Nc1cc(Nc2nccc(-c3cn(C)c4ccccc34)n2)c(OC)cc1OCCN(C)C [1⋅Ms, methanesulfonate] 5.95 h

====

assay: Pharmacokinetics in male SD rats dosed PO (plasma and brain); format: in vivo, rat; settings: rat; Plasma; male SD rats PO 5 mg/kg
PROPERTY MEASURED: Tmax
Reply with the number and its unit after it.

What value of Tmax has been reported for the following molecule? C=CC(=O)Nc1cc(Nc2nccc(-c3cn(C)c4ccccc34)n2)c(OC)cc1OCCN(C)C [1⋅Ms, methanesulfonate] 2 h

====

test: Pharmacokinetics in male SD rats dosed PO (plasma and brain); assay type: in vivo, rat; details: rat; Brain (vs plasma); male SD rats PO 5 mg/kg; read-out: AUC Ratio
PROPERTY MEASURED: Kp
Field format: numeric only.

What value of Kp has been reported for the following molecule? C=CC(=O)Nc1cc(Nc2nccc(-c3cn(C)c4ccccc34)n2)c(OC)cc1OCCN(C)C [1⋅Ms, methanesulfonate] 9.44

====

experiment: Pharmacokinetics in male SD rats dosed PO (plasma and brain); format: in vivo, rat; conditions: rat; Plasma; male SD rats PO 5 mg/kg
PROPERTY MEASURED: AUC(0-t)

What value of AUC(0-t) has been reported for the following molecule? C=CC(=O)Nc1cc(Nc2nccc(-c3cn(C)c4ccccc34)n2)c(OC)cc1OCCN(C)C [1⋅Ms, methanesulfonate] 535 ng·h/mL
